SYSTEM: T1, human CCR8 (human, UniProt P51685 1-355)
T1 construct: Native CCR8 on human PBMC (CCR8+ CD3+ or CCR8+ CD4+ lymphocytes); also called chemokine (C-C motif) receptor 8
T1 sequence (P51685 whole entry): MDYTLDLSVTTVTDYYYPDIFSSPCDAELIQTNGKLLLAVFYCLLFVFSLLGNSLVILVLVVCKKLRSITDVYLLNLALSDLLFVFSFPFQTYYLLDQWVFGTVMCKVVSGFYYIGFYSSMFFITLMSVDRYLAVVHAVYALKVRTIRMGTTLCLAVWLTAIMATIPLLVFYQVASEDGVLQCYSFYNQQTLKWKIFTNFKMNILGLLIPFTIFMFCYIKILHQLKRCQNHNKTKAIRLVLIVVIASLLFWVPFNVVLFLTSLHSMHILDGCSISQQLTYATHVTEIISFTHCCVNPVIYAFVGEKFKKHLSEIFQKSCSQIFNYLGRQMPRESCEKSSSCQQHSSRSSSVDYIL
PROTOCOL_DETAILS: flow blocking, PBMC CCR8+CD4+; competitor PE-AB15
Entries and their % Blocking
Output spec: scalar in %, unitless text.

Ask: I have this binder here, AB11 (antibody, V domains shown, Hybridoma monoclonal; also called antibody 11; clone 11) VH: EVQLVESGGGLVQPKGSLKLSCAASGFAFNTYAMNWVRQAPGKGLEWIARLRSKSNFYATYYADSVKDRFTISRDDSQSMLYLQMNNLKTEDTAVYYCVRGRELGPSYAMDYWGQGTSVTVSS VL: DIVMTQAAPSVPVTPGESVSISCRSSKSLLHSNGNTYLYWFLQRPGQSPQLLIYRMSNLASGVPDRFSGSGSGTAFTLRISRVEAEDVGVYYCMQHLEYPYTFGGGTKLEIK , and I need its recorded % Blocking.
Result: 93.8

Ask: Another binder to check: AB3 (antibody, V domains shown, Hybridoma monoclonal; also called antibody 3; clone 3) VH: QVQLKESGPGLVKPSETLSLTCTVSGFSLTSYHISWVRQPPGKGLEWMGVIWGDGKTTYNSALKSRLSISRDTSKSQVFLKMNSLKTEDTATYYCARGGDSGFAYWGQGTLVTVSS VL: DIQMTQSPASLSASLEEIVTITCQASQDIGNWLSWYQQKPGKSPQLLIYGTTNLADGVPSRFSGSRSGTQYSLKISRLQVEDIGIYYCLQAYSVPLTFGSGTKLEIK
Result: -7.75

Ask: Another binder to check: AB14 (antibody, V domains shown, Hybridoma monoclonal; Same VH/VL entries as AB15; also called antibody 14; clone 14) VH: EVQLVESGGGLVQPKGSLKLSCAASGFTFNTYAMNWVRQAPGKGLEWVARIRSKSNNYATYYVDSVKDRFTISRDDSQSMLYLQINNLKTEDTAMYYCVRGRELGPYSAMDYWGQGTSVTVSS VL: DIVMTQAAPSVPVTPGESVSISCRSSKSLLHSNGNTYLYWFLQRPGQSPQLLIYRMSNLASGVPDRFSGSGSGTAFTLRISRVEAEDVGLYYCMQHLEYPFTFGGGTKLEIK
Result: 97.7
